Data provenance is BindingDB's records for doi:10.1016/s0006-2952(02)01515-0.

target: D(3) dopamine receptor (Homo sapiens)
Sequence (P35462 as listed by the source): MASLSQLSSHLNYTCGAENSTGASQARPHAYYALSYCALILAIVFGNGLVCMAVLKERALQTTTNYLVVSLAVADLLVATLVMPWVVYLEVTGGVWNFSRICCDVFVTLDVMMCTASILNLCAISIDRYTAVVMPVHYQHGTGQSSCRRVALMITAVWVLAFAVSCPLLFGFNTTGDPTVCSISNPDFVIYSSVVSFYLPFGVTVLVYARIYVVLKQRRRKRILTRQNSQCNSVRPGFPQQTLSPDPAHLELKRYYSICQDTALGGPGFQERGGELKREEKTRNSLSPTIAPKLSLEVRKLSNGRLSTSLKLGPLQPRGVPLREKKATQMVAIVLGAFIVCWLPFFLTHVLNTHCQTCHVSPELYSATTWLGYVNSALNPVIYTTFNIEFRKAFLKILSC
PARAMETER MEASURED: pKi
Note on units: pKi is unitless, being -log10 of a concentration expressed in mol/L.

State its pKi on D(3) dopamine receptor (Homo sapiens): CC(CN(C)C)CN1c2ccccc2Sc2ccc(C#N)cc21 (stereo unspecified)
8.60

###

Target chain: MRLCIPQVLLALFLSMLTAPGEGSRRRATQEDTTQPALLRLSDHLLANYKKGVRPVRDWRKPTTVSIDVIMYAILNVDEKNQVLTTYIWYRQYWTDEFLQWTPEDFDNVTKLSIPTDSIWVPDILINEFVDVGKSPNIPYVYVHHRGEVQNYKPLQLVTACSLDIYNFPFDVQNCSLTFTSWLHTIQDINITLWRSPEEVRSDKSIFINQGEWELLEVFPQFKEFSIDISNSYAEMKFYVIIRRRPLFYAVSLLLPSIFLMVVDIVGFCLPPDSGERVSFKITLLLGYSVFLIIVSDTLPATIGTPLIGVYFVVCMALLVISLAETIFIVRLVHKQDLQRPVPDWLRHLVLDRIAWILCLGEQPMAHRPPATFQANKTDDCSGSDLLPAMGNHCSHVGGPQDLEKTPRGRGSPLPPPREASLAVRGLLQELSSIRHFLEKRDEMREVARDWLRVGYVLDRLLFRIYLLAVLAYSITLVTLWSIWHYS
PARAMETER MEASURED: pKi
Value format note: pKi is -log10 of concentration (mol/L); just state the number.

Item CC(CN(C)C)CN1c2ccccc2Sc2ccc(C#N)cc21 (stereo unspecified) [CAS_62865] has what recorded pKi?
7.12

###

target: Muscarinic acetylcholine receptor M5 (Homo sapiens)
Sequence (P08912 whole entry): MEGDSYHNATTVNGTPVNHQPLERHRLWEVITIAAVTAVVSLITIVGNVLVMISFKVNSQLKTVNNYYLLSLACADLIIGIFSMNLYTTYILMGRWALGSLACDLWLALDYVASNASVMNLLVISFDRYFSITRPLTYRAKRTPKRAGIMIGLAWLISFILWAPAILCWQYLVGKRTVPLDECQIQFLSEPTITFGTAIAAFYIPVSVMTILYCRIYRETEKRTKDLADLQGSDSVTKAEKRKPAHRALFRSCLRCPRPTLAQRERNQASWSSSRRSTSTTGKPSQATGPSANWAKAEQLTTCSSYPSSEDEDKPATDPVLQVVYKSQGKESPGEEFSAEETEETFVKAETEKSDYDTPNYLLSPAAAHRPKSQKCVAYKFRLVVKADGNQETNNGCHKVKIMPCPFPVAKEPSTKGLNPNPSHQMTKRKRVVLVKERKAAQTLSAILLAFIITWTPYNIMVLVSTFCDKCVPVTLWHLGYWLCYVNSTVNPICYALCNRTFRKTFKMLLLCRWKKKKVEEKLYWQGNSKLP
PARAMETER MEASURED: pKi
Here pKi is given on a logarithmic scale as minus log10 of the concentration in mol/L.

API: value(readout= pKi, system= Muscarinic acetylcholine receptor M5 (Homo sapiens), query= CC(CN(C)C)CN1c2ccccc2Sc2ccc(C#N)cc21 (stereo unspecified) )
7.46

###

target: Muscarinic acetylcholine receptor M1 (Homo sapiens, UniProt P11229)
Sequence (P11229 whole entry): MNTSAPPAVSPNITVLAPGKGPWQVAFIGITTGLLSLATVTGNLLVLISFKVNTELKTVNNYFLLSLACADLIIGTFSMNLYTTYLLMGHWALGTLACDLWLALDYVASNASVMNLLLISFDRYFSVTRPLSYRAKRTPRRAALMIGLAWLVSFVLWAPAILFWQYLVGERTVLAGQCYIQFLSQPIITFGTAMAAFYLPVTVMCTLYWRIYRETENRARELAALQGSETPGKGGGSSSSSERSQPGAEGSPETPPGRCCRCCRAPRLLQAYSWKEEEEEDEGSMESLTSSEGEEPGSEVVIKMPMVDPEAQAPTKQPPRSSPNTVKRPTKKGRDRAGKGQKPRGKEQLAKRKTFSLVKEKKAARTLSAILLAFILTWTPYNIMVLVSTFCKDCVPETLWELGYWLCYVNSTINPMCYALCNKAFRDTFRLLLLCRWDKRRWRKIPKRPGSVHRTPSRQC
PARAMETER MEASURED: Ki

Quick check: Ki of CC(CN(C)C)CN1c2ccccc2Sc2ccc(C#N)cc21 (stereo unspecified) [CAS_62865] ?
13 nM

###

biological target: 5-hydroxytryptamine receptor 7 (Homo sapiens)
Sequence (P34969 whole entry): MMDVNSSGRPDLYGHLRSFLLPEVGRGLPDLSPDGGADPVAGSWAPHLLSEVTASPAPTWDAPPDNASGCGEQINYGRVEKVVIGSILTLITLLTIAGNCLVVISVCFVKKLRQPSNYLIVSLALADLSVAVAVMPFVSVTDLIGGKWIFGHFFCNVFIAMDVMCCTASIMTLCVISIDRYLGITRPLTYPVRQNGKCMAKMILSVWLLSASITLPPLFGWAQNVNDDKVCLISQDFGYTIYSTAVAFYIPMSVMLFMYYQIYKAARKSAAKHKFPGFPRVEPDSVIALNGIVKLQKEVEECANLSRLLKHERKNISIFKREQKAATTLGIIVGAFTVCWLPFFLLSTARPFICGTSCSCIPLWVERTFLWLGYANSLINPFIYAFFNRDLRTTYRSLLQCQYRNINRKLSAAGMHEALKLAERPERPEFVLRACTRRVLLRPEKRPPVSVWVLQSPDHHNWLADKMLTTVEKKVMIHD
PARAMETER MEASURED: Ki (nM)
Numbers only here, please. The scale is nM.

# get_value(readout='Ki', item= CC(CN(C)C)CN1c2ccccc2Sc2ccc(C#N)cc21 (stereo unspecified) )
22

###

biological target: Gamma-aminobutyric acid receptor subunit alpha-1 (Rattus norvegicus)
Sequence (P62813 whole entry): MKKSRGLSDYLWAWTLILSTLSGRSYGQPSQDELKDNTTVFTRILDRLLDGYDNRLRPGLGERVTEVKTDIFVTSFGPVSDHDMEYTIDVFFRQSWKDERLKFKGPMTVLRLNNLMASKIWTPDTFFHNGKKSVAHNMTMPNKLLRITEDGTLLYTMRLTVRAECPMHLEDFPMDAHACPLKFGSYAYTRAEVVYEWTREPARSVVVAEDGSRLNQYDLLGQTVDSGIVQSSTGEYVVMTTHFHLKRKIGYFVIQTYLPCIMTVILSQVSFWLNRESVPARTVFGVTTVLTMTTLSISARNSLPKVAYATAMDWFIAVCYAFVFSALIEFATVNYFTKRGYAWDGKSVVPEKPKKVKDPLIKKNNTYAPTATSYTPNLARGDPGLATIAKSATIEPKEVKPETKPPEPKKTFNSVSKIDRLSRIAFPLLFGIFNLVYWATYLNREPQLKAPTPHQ
PARAMETER MEASURED: Ki

Find the measured Ki: item CC(CN(C)C)CN1c2ccccc2Sc2ccc(C#N)cc21 (stereo unspecified) , target or system Gamma-aminobutyric acid receptor subunit alpha-1 (Rattus norvegicus).
> 10 µM

###

Sequence of the target: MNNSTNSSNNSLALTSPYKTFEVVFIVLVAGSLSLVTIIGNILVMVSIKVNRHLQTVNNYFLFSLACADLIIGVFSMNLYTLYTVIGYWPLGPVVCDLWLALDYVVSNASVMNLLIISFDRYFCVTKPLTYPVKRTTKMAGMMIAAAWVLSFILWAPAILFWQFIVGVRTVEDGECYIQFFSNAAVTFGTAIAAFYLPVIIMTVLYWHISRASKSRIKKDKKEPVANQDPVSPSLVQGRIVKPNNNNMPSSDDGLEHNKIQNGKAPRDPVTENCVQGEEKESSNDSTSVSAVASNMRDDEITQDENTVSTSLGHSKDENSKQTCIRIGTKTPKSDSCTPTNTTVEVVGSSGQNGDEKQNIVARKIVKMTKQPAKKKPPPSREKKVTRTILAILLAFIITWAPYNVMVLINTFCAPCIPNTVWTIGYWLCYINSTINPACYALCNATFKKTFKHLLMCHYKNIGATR
PARAMETER MEASURED: Ki
A complete answer gives the number and then names the unit.

Looking for the measured Ki of CC(CN(C)C)CN1c2ccccc2Sc2ccc(C#N)cc21 (stereo unspecified) , can you help?
42 nM
